Listing: IC50 of selected binders
Target: T1, human IL-13 (human, UniProt P35225 35-146, biotinylated on the Biacore chip)
T1 construct: also called hIL-13; recombinant human IL-13
T1 sequence (P35225 35-146 limits assumed): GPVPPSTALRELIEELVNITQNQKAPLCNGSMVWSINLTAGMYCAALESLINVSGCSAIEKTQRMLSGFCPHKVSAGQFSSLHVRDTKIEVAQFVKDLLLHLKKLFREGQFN
Assay: IL-13 receptor I RBA: FMAT beads, IL-13R alpha1/Fc

binder	IC50 [nM]
DOM10-53-338 (other, VH dAb) VH: EVQLLESGGGLVQPGGSLRLSCAASGFIFAWYDMGWARQAPGKGLEWVSSIDWRGNVTYYADSVKGRFTISRDNSKNTLYLQMNSLRAEDTAVYYCATAEDEPGYDYWGQGTLVTVSS	0.387
DOM10-53-343 40K PEG2 MAL (other, branched 40K PEG2-MAL on the C-terminal cysteine) VH: EVQLLESGGGLVQPGGSLRLSCAASGFIFAWYDMGWARQAPGKGLEWVSSIDWHGEVTYYADSVKGRFTISRDNSKNTLYLQMNSLRAEDTAVYYCATAEDEPGYDYWGQGTLVTVSSC	0.033
DOM10-53-338 40K PEG2 NHS (other, 40K PEG2-NHS on surface lysine residues (positions not stated), also called 40K PEGylated DOM10-53-338 dAb) VH: EVQLLESGGGLVQPGGSLRLSCAASGFIFAWYDMGWARQAPGKGLEWVSSIDWRGNVTYYADSVKGRFTISRDNSKNTLYLQMNSLRAEDTAVYYCATAEDEPGYDYWGQGTLVTVSS	0.226
DOM10-53-343 (other, VH dAb) VH: EVQLLESGGGLVQPGGSLRLSCAASGFIFAWYDMGWARQAPGKGLEWVSSIDWHGEVTYYADSVKGRFTISRDNSKNTLYLQMNSLRAEDTAVYYCATAEDEPGYDYWGQGTLVTVSS	0.136
DOM10-53-338 30K PEG ALD (other, 30K PEG-ALD on the N-terminus (alpha-amino group), also called 30K PEGylated DOM10-53-338 dAb) VH: EVQLLESGGGLVQPGGSLRLSCAASGFIFAWYDMGWARQAPGKGLEWVSSIDWRGNVTYYADSVKGRFTISRDNSKNTLYLQMNSLRAEDTAVYYCATAEDEPGYDYWGQGTLVTVSS	0.169

Recorded values, source patent US20090060916A1.
